- assayNotes: Cytotoxicity against human MCF10A cells after 72 hrs by MTT assay
- Format: cell-based, MCF-10A
- measurementConditions: mcf-10a, 72 h
# label = 1.0 if TGI < 40 µM else 0.0

These recorded examples may help you get a feel for the data.
| sampleSmiles | classLabel |
| --- | --- |
| CS/C(=N\C(=O)c1sccc1Cl)NC(=O)c1sccc1Cl | 1.0 |
| CS/C(=N\C(=O)c1ccco1)NC(=O)c1ccco1 | 0.0 |
| CS/C(=N\C(=O)c1c2ccccc2nc2ccccc12)NC(=O)c1c2ccccc2nc2ccccc12 | 0.0 |
| O=C(/N=C(/NC(=O)c1c2ccccc2nc2ccccc12)[Se]Cc1ccccc1)c1c2ccccc2nc2ccccc12 | 0.0 |
| C[Se]/C(=N\C(=O)c1cnc2ccccc2c1)NC(=O)c1cnc2ccccc2c1 | 0.0 |

Incoming: # strict comparison: is reported TGI < 40 µM? input = `O=C(/N=C(/NC(=O)c1cc(-c2ccccc2)nc2ccccc12)[Se]Cc1ccccc1)c1cc(-c2ccccc2)nc2ccccc12`
Outgoing: 0.0

---

// reported TGI for each item listed
- Test system: HepG2
- assayNotes: Cytotoxicity against human HepG2 cells after 72 hrs by MTT assay
- Format: functional
- measurementConditions: HepG2, 72 h

| sampleSmiles | TGI |
| --- | --- |
| CS/C(=N\C(=O)c1cc2ccccc2s1)NC(=O)c1cc2ccccc2s1 | 53 µM |
| C[Se]/C(=N\C(=O)c1cc2ccccc2s1)NC(=O)c1cc2ccccc2s1 | 41 µM |
| CS/C(=N\C(=O)c1csc([N+](=O)[O-])c1)NC(=O)c1csc([N+](=O)[O-])c1 | > 100 µM |
| C[Se]/C(=N\C(=O)c1ccno1)NC(=O)c1ccno1 | 9.35 µM |
| O=C(/N=C(/NC(=O)c1cnc2ccccc2c1)[Se]Cc1ccccc1)c1cnc2ccccc2c1 | 48.9 µM |
| O=C(/N=C(/NC(=O)c1ccc2c(c1)OCO2)[Se]Cc1ccccc1)c1ccc2c(c1)OCO2 | > 100 µM |
| CS/C(=N\C(=O)c1ccco1)NC(=O)c1ccco1 | > 100 µM |
| O=C(/N=C(/NC(=O)c1cccs1)[Se]Cc1ccccc1)c1cccs1 | 58.1 µM |

Incoming: Specify TGI for `O=C(/N=C(/NC(=O)c1csc([N+](=O)[O-])c1)[Se]Cc1ccccc1)c1csc([N+](=O)[O-])c1` , system HepG2.
Outgoing: 62.8 µM

Incoming: Specify TGI for `CS/C(=N\C(=O)c1ccno1)NC(=O)c1ccno1` , system HepG2.
Outgoing: > 100 µM

Incoming: Specify TGI for `O=C(/N=C(/NC(=O)c1cc2ccccc2s1)[Se]Cc1ccccc1)c1cc2ccccc2s1` , system HepG2.
Outgoing: 49 µM

---

// reported GI50 for each item listed
- Test system: HT-29
- assayNotes: Cytotoxicity against human HT-29 cells after 72 hrs by MTT assay
- Assay type: functional
- measurementConditions: HT-29, 72 h
Response body: numeric value in µM, unit text excluded.

| compound | unitText | GI50 |
| --- | --- | --- |
| CS/C(=N\C(=O)c1cc2ccccc2s1)NC(=O)c1cc2ccccc2s1 | µM | 16.8 |
| C[Se]/C(=N\C(=O)c1csc([N+](=O)[O-])c1)NC(=O)c1csc([N+](=O)[O-])c1 | µM | 0.00063 |
| O=C(/N=C(/NC(=O)c1cc(-c2ccccc2)nc2ccccc12)[Se]Cc1ccccc1)c1cc(-c2ccccc2)nc2ccccc12 | µM | 6.07 |
| COc1cc([C@@H]2c3cc4c(cc3[C@@H](O[C@@H]3O[C@@H]5CO[C@@H](C)O[C@H]5[C@H](O)[C@H]3O)[C@H]3COC(=O)[C@H]23)OCO4)cc(OC)c1O [ETOPOSIDE] | µM | 31.6 |
| C[Se]/C(=N\C(=O)c1cnc2ccccc2c1)NC(=O)c1cnc2ccccc2c1 | µM | 0.2 |

Incoming: Determine its reported GI50: `O=C(/N=C(/NC(=O)c1c2ccccc2nc2ccccc12)[Se]Cc1ccccc1)c1c2ccccc2nc2ccccc12`
Outgoing: 26.9

Incoming: Determine its reported GI50: `COc1cccc2c1C(=O)c1c(O)c3c(c(O)c1C2=O)C[C@@](O)(C(=O)CO)C[C@@H]3O[C@H]1C[C@H](N)[C@H](O)[C@H](C)O1`
Outgoing: 0.2

---

// reported LC50 for each item listed
- assayNotes: Cytotoxicity against human MCF10A cells after 72 hrs by MTT assay
- Type: cell-based, MCF-10A
- measurementConditions: mcf-10a, 72 h

Check out these entries, answers already filled in.
| sampleSmiles | LC50 |
| --- | --- |
| C[Se]/C(=N\C(=O)c1cnc2ccccc2c1)NC(=O)c1cnc2ccccc2c1 | 83.86 µM |
| O=C(/N=C(/NC(=O)c1ccno1)[Se]Cc1ccccc1)c1ccno1 | > 100 µM |
| O=C(/N=C(/NC(=O)c1ccco1)[Se]Cc1ccccc1)c1ccco1 | > 100 µM |
| CS/C(=N\C(=O)c1cnc2ccccc2c1)NC(=O)c1cnc2ccccc2c1 | 82.19 µM |
| O=C(/N=C(/NC(=O)c1csc([N+](=O)[O-])c1)[Se]Cc1ccccc1)c1csc([N+](=O)[O-])c1 | 83.76 µM |
| CS/C(=N\C(=O)c1sccc1Cl)NC(=O)c1sccc1Cl | 64.11 µM |

Incoming: Determine its reported LC50: `C[Se]/C(=N\C(=O)c1ccco1)NC(=O)c1ccco1`
Outgoing: 98.07 µM

Incoming: Determine its reported LC50: `O=C(/N=C(/NC(=O)c1c2ccccc2nc2ccccc12)[Se]Cc1ccccc1)c1c2ccccc2nc2ccccc12`
Outgoing: > 100 µM

Incoming: Determine its reported LC50: `CS/C(=N\C(=O)c1ccno1)NC(=O)c1ccno1`
Outgoing: > 100 µM

---

- assayNotes: Cytotoxicity against human MCF10A cells after 72 hrs by MTT assay
- Type: cell-based, MCF-10A
- measurementConditions: MCF10A cells
# label = Yes if GI50 at 72 h < 2 µM else No

| sampleSmiles | classLabel |
| --- | --- |
| O=C(/N=C(/NC(=O)c1csc([N+](=O)[O-])c1)[Se]Cc1ccccc1)c1csc([N+](=O)[O-])c1 | No |
| O=C(/N=C(/NC(=O)c1ccco1)[Se]Cc1ccccc1)c1ccco1 | No |
| C[Se]/C(=N\C(=O)c1cc2ccccc2s1)NC(=O)c1cc2ccccc2s1 | Yes |

Incoming: # strict comparison: is reported GI50 at 72 h < 2 µM? input = `C[Se]/C(=N\C(=O)c1cccs1)NC(=O)c1cccs1`
Outgoing: No

Incoming: # strict comparison: is reported GI50 at 72 h < 2 µM? input = `O=C(/N=C(/NC(=O)c1ccc2c(c1)OCO2)[Se]Cc1ccccc1)c1ccc2c(c1)OCO2`
Outgoing: No

---

- assayNotes: Cytotoxicity against human MCF10A cells after 72 hrs by MTT assay
- Assay type: cell-based, MCF-10A
- measurementConditions: mcf-10a, 72 h
// reported LC50 for each item listed
Response body: numeric value in µM, unit text excluded.

| sampleSmiles | unitText | LC50 |
| --- | --- | --- |
| C[Se]/C(=N\C(=O)c1sccc1Cl)NC(=O)c1sccc1Cl | µM | 7.82 |
| C[Se]/C(=N\C(=O)c1cc(-c2ccccc2)nc2ccccc12)NC(=O)c1cc(-c2ccccc2)nc2ccccc12 | µM | 76.9 |
| CS/C(=N\C(=O)c1csc([N+](=O)[O-])c1)NC(=O)c1csc([N+](=O)[O-])c1 | µM | 75.14 |

Incoming: Determine its reported LC50: `C[Se]/C(=N\C(=O)c1cccs1)NC(=O)c1cccs1`
Outgoing: 73.51

---

- Test system: HepG2
- assayNotes: Cytotoxicity against human HepG2 cells after 72 hrs by MTT assay
- Type: functional
- measurementConditions: HepG2, 72 h
endpointName: TGI (µM)
Response body: numeric value in µM, unit text excluded.

Check out these entries, answers already filled in.
| sampleSmiles | unitText | TGI |
| --- | --- | --- |
| CS/C(=N\C(=O)c1cc(-c2ccccc2)nc2ccccc12)NC(=O)c1cc(-c2ccccc2)nc2ccccc12 | µM | 48.1 |
| C[Se]/C(=N\C(=O)c1ccc2c(c1)OCO2)NC(=O)c1ccc2c(c1)OCO2 | µM | 23.6 |
| O=C(/N=C(/NC(=O)c1ccno1)[Se]Cc1ccccc1)c1ccno1 | µM | 58.9 |
| C[Se]/C(=N\C(=O)c1c2ccccc2nc2ccccc12)NC(=O)c1c2ccccc2nc2ccccc12 | µM | 52.4 |
| O=C(/N=C(/NC(=O)c1sccc1Cl)[Se]Cc1ccccc1)c1sccc1Cl | µM | 45.5 |

Next:
Incoming: Determine its reported TGI: `C[Se]/C(=N\C(=O)c1cc(-c2ccccc2)nc2ccccc12)NC(=O)c1cc(-c2ccccc2)nc2ccccc12`
Outgoing: 10.1
